Molecular target: Aβ42 (Homo sapiens, UniProt P05067)
Sequence (P05067 672-713): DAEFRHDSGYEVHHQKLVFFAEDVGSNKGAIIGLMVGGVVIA
Assay: Th-T (thioflavin-T) assay of Aβ42 aggregation
Format: biochemical
Conditions: Supplementary Fig. 47 source data; measurement M37 of time course
// label = Fulfilled if Th-T fluorescence, mean of three wells is not less than 3, otherwise Not fulfilled

Example results:
molecule="CC(C)=CCC/C(C)=C/CC/C(C)=C/CC/C(C)=C/Cc1c(O)c(C)c(C)oc1=O [Compound 2]" group_label="Not fulfilled"
molecule="C=C1CC[C@H]2[C@]3(C)C[C@@H](C=C(C)C)O[C@H]3CC[C@]2(C)[C@@H]1Cc1c(OC)oc(CO)c(C)c1=O [Compound 17]" group_label=Fulfilled
molecule="C=C1CC[C@H]2[C@]3(C)C[C@H](C=C(C)C)O[C@H]3CC[C@]2(C)[C@@H]1Cc1c(OC)oc(C)c(C)c1=O [Compound 24]" group_label=Fulfilled
molecule="C=C1CCC2C(C)(CC(=O)C=C(C)C)C(O)CCC2(C)C1Cc1c(O)c(C)c(C)oc1=O (centres unmarked) [Compound 7]" group_label=Fulfilled
molecule="C=C1CCC2C(C)(CC(=O)C=C(C)C)C(O)CCC2(C)C1Cc1c(OC)oc(CO)c(C)c1=O (centres unmarked) [Compound 19]" group_label=Fulfilled

[ask] Quick check, Th-T fluorescence, mean of three wells >= 3? C=C1CC[C@H]2[C@]3(C)C[C@@H](C=C(C)C)O[C@H]3CC[C@]2(C)[C@@H]1Cc1c(O)c(C)c(C)oc1=O [Compound 5, subglutinol A]
[reply] Not fulfilled

[ask] Quick check, Th-T fluorescence, mean of three wells >= 3? C=C1CCC2C(C)(CC(=O)C=C(C)C)C(O)CCC2(C)C1Cc1c(OC)oc(C)c(C)c1=O (centres unmarked) [Compound 25]
[reply] Fulfilled

[ask] Quick check, Th-T fluorescence, mean of three wells >= 3? C=C1CC[C@H]2[C@]3(C)C[C@H](C=C(C)C)O[C@H]3CC[C@]2(C)[C@@H]1Cc1c(OC)oc(CO)c(C)c1=O [Compound 18]
[reply] Fulfilled

[ask] Quick check, Th-T fluorescence, mean of three wells >= 3? C=C1CCC2C3(C)CC(C=C(C)C)OC3CCC2(C)C1Cc1c(OC)oc(C)c(C)c1=O (centres unmarked) [Compound 23]
[reply] Fulfilled

====

Target: Aβ42 (Homo sapiens, UniProt P05067)
Experiment: Th-T (thioflavin-T) assay of Aβ42 aggregation
Assay type: biochemical
Details: head suffix _10 (concentration 10); reading M70
Labelling field: enter MET if recorded Th-T fluorescence of Aβ42 (sheet Fig. 7a), mean of three wells is less than 3. Enter NOT MET if it equals or exceeds that cut-off.

molecule="C=C1CCC2C(C)(CCC=C(C)C)C(O)CCC2(C)C1Cc1c(OC)oc(C)c(C(=O)OC)c1=O (centres unmarked)" group_label=MET
molecule=C=C1CC[C@@H]2[C@](C)(CC[C@H]3O[C@H](C=C(C)C)C[C@@]23C)[C@@H]1Cc1c(OC)oc(CO)c(C(=O)OC)c1=O group_label=MET
molecule="C=C1CCC2C(C)(CCC=C(C)C)C(O)CCC2(C)C1Cc1c(OC)oc(CO)c(C)c1=O (centres unmarked)" group_label="NOT MET"
molecule="C=C1CCC2C(C)(CCC=C(C)C)C(O)CCC2(C)C1Cc1c(OC)oc(CO)c(C(=O)OC)c1=O (centres unmarked)" group_label=MET

[ask] Dear reviewer, please state whether C=C1CC[C@@H]2[C@](C)(CC[C@H]3O[C@H](C=C(C)C)C[C@@]23C)[C@@H]1Cc1c(OC)oc(CO)c(C)c1=O has Th-T fluorescence of Aβ42 (sheet Fig. 7a), mean of three wells strictly beneath 3.
[reply] NOT MET

====

Target: Aβ42 (Homo sapiens, UniProt P05067)
Test: Th-T (thioflavin-T) assay of Aβ42 aggregation
Assay type: biochemical
Details: Aβ42 aggregation time course, reading M126
Quantity: Th-T fluorescence, mean of three wells
Answer with the value's number alone.

molecule=C=C1CC[C@H]2[C@]3(C)C[C@H](C=C(C)C)O[C@H]3CC[C@]2(C)[C@@H]1Cc1c(O)c(C)c(C)oc1=O quantity="Th-T fluorescence, mean of three wells" data_value=3.018

[ask] State, in one line, measured Th-T fluorescence, mean of three wells of C=C1CCC2C(C)(CC(=O)C=C(C)C)C(O)CCC2(C)C1Cc1c(OC)oc(CO)c(C)c1=O (stereo not shown)
[reply] 3.596

[ask] State, in one line, measured Th-T fluorescence, mean of three wells of C=C1CCC2C(C)(CCC=C(C)C)C(O)CCC2(C)C1Cc1c(OC)oc(C)c(C)c1=O (stereo not shown) [Compound 11]
[reply] 3.403

[ask] State, in one line, measured Th-T fluorescence, mean of three wells of C=C1CC[C@H]2[C@]3(C)C[C@@H](C=C(C)C)O[C@H]3CC[C@]2(C)[C@@H]1Cc1c(O)c(C)c(C)oc1=O
[reply] 2.668

====

Biological target: Aβ42 (Homo sapiens)
Experiment: Th-T (thioflavin-T) assay of Aβ42 aggregation
Type: biochemical
Conditions: compound at 10; reading M62 of time course
// label = Satisfied if Th-T fluorescence, mean of three wells is not less than 3, otherwise Not satisfied

compound=C=C1CC[C@@H]2[C@](C)(CC[C@H]3O[C@H](C=C(C)C)C[C@@]23C)[C@@H]1Cc1c(OC)oc(CO)c(C)c1=O group_label=Satisfied

[ask] Quick check, Th-T fluorescence, mean of three wells >= 3? C=C1CCC2C(C)(CCC=C(C)C)C(O)CCC2(C)C1Cc1c(OC)oc(C)c(C(=O)OC)c1=O (centres unmarked)
[reply] Not satisfied

[ask] Quick check, Th-T fluorescence, mean of three wells >= 3? C=C1CC[C@@H]2[C@](C)(CC[C@H]3O[C@H](C=C(C)C)C[C@@]23C)[C@@H]1Cc1c(OC)oc(CO)c(C(=O)OC)c1=O
[reply] Not satisfied

[ask] Quick check, Th-T fluorescence, mean of three wells >= 3? C=C1CCC2C(C)(CCC=C(C)C)C(O)CCC2(C)C1Cc1c(OC)oc(CO)c(C(=O)OC)c1=O (centres unmarked)
[reply] Not satisfied

[ask] Quick check, Th-T fluorescence, mean of three wells >= 3? C=C1CCC2C(C)(CCC=C(C)C)C(O)CCC2(C)C1Cc1c(OC)oc(CO)c(C)c1=O (centres unmarked)
[reply] Satisfied

====

Biological target: UniProt:P05067
Assay: Th-T (thioflavin-T) assay of Aβ42 aggregation
Format: biochemical
Conditions: measurement M5; source data, Ab alone and No Ab as controls
Quantity: Th-T assay plate reading, mean of three wells (Supplementary Fig. 47)
Answer with the value's number alone.

Use the examples below as a reference point.
compound="C=C1CCC2C(C)(CCC=C(C)C)C(O)CCC2(C)C1Cc1c(OC)oc(C)c(C(=O)OC)c1=O (stereo not shown)" target_entity=UniProt:P05067 data_value=0.2619
compound="C=C1CCC2C(C)(CC(=O)C=C(C)C)C(O)CCC2(C)C1Cc1c(OC)oc(CO)c(C)c1=O (stereo not shown)" target_entity=UniProt:P05067 data_value=0.4637
compound=C=C1CC[C@H]2[C@]3(C)C[C@@H](C=C(C)C)O[C@H]3CC[C@]2(C)[C@@H]1Cc1c(OC)oc(CO)c(C)c1=O target_entity=UniProt:P05067 data_value=0.4245
compound="C=C1CCC2C(C)(CCC=C(C)C)C(=O)CCC2(C)C1Cc1c(O)c(C)c(C)oc1=O (stereo not shown)" target_entity=UniProt:P05067 data_value=0.2913
compound=C=C1CC[C@@H]2[C@](C)(CC[C@H]3O[C@H](C=C(C)C)C[C@@]23C)[C@@H]1Cc1c(OC)oc(CO)c(C(=O)OC)c1=O target_entity=UniProt:P05067 data_value=0.2108
compound="C=C1CCC2C(C)(CC(=O)C=C(C)C)C(O)CCC2(C)C1Cc1c(O)c(C)c(C)oc1=O (stereo not shown)" target_entity=UniProt:P05067 data_value=0.4026

Next compound, Th-T assay plate reading, mean of three wells (Supplementary Fig. 47) to be filled in.
[ask] State, in one line, measured Th-T assay plate reading, mean of three wells (Supplementary Fig. 47) of C=C1CC[C@H]2[C@]3(C)C[C@H](C=C(C)C)O[C@H]3CC[C@]2(C)[C@@H]1Cc1c(OC)oc(CO)c(C)c1=O
[reply] 0.363

====

Target: UniProt:P05067
Assay: Th-T (thioflavin-T) assay of Aβ42 aggregation
Format: biochemical
Conditions: Aβ42 aggregation time course, reading M125
Quantity: Th-T fluorescence, mean of three wells
Answer with the value's number alone.

Use the examples below as a reference point.
molecule="C=C1CCC2C(C)(CCC=C(C)C)C(O)CCC2(C)C1Cc1c(OC)oc(CO)c(C(=O)OC)c1=O (stereo not shown)" data_value=1.037
molecule="C=C1CCC2C(C)(CCC=C(C)C)C(O)CCC2(C)C1Cc1c(OC)oc(C)c(C)c1=O (stereo not shown) [Compound 15, viridoxin A hydrolysate]" data_value=3.327
molecule=CC(C)=CCC/C(C)=C/CC/C(C)=C/CC/C(C)=C/Cc1c(O)c(C)c(C)oc1=O data_value=2.938

Next molecule, Th-T fluorescence, mean of three wells to be filled in.
[ask] State, in one line, measured Th-T fluorescence, mean of three wells of C=C1CCC2C(C)(CCC=C(C)C)C(O)CCC2(C)C1Cc1c(O)c(C)c(C)oc1=O (stereo not shown) [Compound 9, higginsianin B]
[reply] 2.798
